target: T1, AFP158/HLA-A*02:01 complex (human); experiment: SPR; vs AS170036 VL1VH1;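 note: crude scFv captured on sensor chip, peptide–HLA complex flowed over at several concentrations, KD estimated from association and dissociation kinetic rates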
T1 construct: biotinylated on the BSP by BirA for ELISA and panning; also called biotinylated AFP158/HLA-A*02:01 complex; Bio-AFP158
Below: a set of entries, each annotated with reported Affinity increase.

Check out these entries, answers already filled in.
{"binder": "AS170036 VL1VH1 HP58A (scFv) scFv: QSALTQPRSVSGSPGQSVTISCAGTSSDVGSENYVSWYQQHPGKAPKLMIYQVNKRASGVPDRFSGSKSGNTASLTISGLQAEDEADYYCASYRSSDHNIVFGGGTKLTVLGGGGSGGGGSGGGGSEVQLVESGGGLVQPGGSLRLSCAASGFTFSSYAMSWVRQAPGKGLEWVSTINSGTGSAYYADSVKGRFTISRDNSKNTLYLQMNSLRAEDTAVYYCAKNFFDGSWFLGPPAMDYWGQGTLVTVSSHHHHHH", "Affinity increase": "0.7 fold"}
{"binder": "AS170036 VL1VH1 HG56A (scFv) scFv: QSALTQPRSVSGSPGQSVTISCAGTSSDVGSENYVSWYQQHPGKAPKLMIYQVNKRASGVPDRFSGSKSGNTASLTISGLQAEDEADYYCASYRSSDHNIVFGGGTKLTVLGGGGSGGGGSGGGGSEVQLVESGGGLVQPGGSLRLSCAASGFTFSSYAMSWVRQAPGKGLEWVSTINSGTASPYYADSVKGRFTISRDNSKNTLYLQMNSLRAEDTAVYYCAKNFFDGSWFLGPPAMDYWGQGTLVTVSSHHHHHH", "Affinity increase": "1.4 fold"}

// switching to the query binder
### Prompt # get_value(readout='Affinity increase', item= AS170036 VL1VH1 HG56E (scFv) scFv: QSALTQPRSVSGSPGQSVTISCAGTSSDVGSENYVSWYQQHPGKAPKLMIYQVNKRASGVPDRFSGSKSGNTASLTISGLQAEDEADYYCASYRSSDHNIVFGGGTKLTVLGGGGSGGGGSGGGGSEVQLVESGGGLVQPGGSLRLSCAASGFTFSSYAMSWVRQAPGKGLEWVSTINSGTESPYYADSVKGRFTISRDNSKNTLYLQMNSLRAEDTAVYYCAKNFFDGSWFLGPPAMDYWGQGTLVTVSSHHHHHH )
### Response 1 fold

Data provenance is patent US20240279318A1.
